Data origin: the nanobody polyreactivity screen of Harvey et al. (2022)

assay: yeast display, Sf9 membrane polyspecificity reagent, FACS + sequencing; frameworks hold sequencing errors
MEASURE: polyreactivity (PSR sort gate)

# example entries with known answers
# MACROMOLECULE SEQUENCE, polyreactivity (PSR sort gate)
measured = [
    ("QVQLVDSGGGLVQAGGSLRLSCAASGITFYYYAMGWYRQAAGKERELVAAISSRGGSTYYADSVKGRFTISRDNAKNTVYLQRNSLKPEDTAVYYCAALYGVSEEDDYWGQATQVTVSS", "high polyreactivity"),
    ("QVQLVESGGGLVQAGGSLRLSCAASGFTFYLYAMGWYRQAPGKERELVAAINSGSSTYYADSVKGRFTISRDNAKNTVYLQMNSLKPEDTAVYYCATDTDRTMDYWGQGTQVTVSS", "low polyreactivity"),
    ("QVQLVESGGGLVQAGRSLRLSCAASGRIFNYYSMGWYRQAPGKERELVAAISSGGSTYYADSVKGRFTISRDYAKNTVYLQMNSLKPEDTAVYYCAAAYGDYGYWGQGTLVTVSS", "high polyreactivity"),
    ("QVQLVESGGGLVQAGGSLRLSCAASGSTFAQNGLGWYRQAPGKERELVAAITSSGSTNYADSVKGRFTISRDNAKNTVYLQMNSLKPEDTAVYYCAKDVLAPYTRHDYWGQGTQVTVSS", "low polyreactivity"),
    ("QVQLVESGGRLVQAGGSLRLSCAASGIIFTNYAMGWYRQAPGKERELVAAISSSSGTTYYADSVKGRFTISRDNAKNTVYLQMNSLKPEDTAVYYCAARPVYSTGYPRGRYGYWGQGTQVTVSS", "high polyreactivity"),
]

Could I get polyreactivity (PSR sort gate) for every one of these entries?
1. QVQLVESGGGLVQAGGSLRLSCAASGSTFGGYAMGWYRPAPGKERELVAAINRSGARTYYADSVKGRFTISRDNAKNTVYLQMNSLKPEDTAVYYCNKAQGSHGAYDYWGQGTQVTVSS
2. QVQLVESGGGLVQAGGSLRLSCAASGSTFGRNVMGWYRQAPGKERELVAAISIRGGSTYYADSVKGRFTISRDNAKNTVYLQMNSLKPEDTAVYYCARDYPTDAYDYWGQGTQVTVSS

Response given:
1. high polyreactivity
2. low polyreactivity

====

test: yeast display, Sf9 membrane polyspecificity reagent, FACS + sequencing; frameworks hold sequencing errors
MEASURE: polyreactivity (PSR sort gate)

# example entries with known answers
# MACROMOLECULE SEQUENCE, polyreactivity (PSR sort gate)
records = [
    ("QVQLVESGGGLVQAGGSLRLSCAASGGTLVPNAMGWYRPAPGKERELVAGISGSGGSTYYADSVKGRFTISRDNAKNTVYLQMNSLKPEDTAVYYCNADRYVPYYEPEMDYWGQGTQVTVSS", "low polyreactivity"),
    ("QVQLVESGGGLVQAGGSLRLSCAASGSTDSNAMGWNRQAPGKEREMVAPISGTGSRTYYADSVKGRFTISRDNAKNTVYFQLNSLKTEDTAVYYCNKDVYGYSRTGPRGYDYWGQGTQVTVSS", "high polyreactivity"),
    ("QVQLVESGGGLVQAGGRLRLSCAASGFIVDDNTIGWYRQAPGKEREVFAAISYSAGSTYYADSVKGRFTISRDNAKNTVYFQLNSLKPEDTAVYYCAAQHYWVTCYLSSYDYWGQGTQVSVSS", "low polyreactivity"),
    ("QVQLVESGGGLVQAGGSLRFSCAASGRTFTYYAMGWYRQAPGKERELVASIRKSGASTYYADSVKGRFTISRDKAKNTVYLQMNSLKPEETAVYYCNTAKGHGRYEYWGQGSQVTVSS", "high polyreactivity"),
]

Now examine the next entry.
Challenge: # return recorded polyreactivity (PSR sort gate) for input QVQLVESLVGLVQAVGSLRLSCAAYGFIFAFDSMGCYRHAPRKERELVAAIRTGGSKNYADSVKGRFTISRDNAKTTVYLQMNSLKPEDTAVYNCAANGRVGFWRWERDYWGQGTQVTVSS
Response given: high polyreactivity

====

assay: yeast display, Sf9 membrane polyspecificity reagent, FACS + sequencing; frameworks hold sequencing errors

# MACROMOLECULE SEQUENCE, polyreactivity (PSR sort gate)
records = [
    ("QVQLVESGGGLVQAGGSLRLSCPASGRTFRWYAMGWYRQAPGKERELVAAISQSGGSTYYAVSVKGRFTISRDNAKNTVYLQMNSLKPEDTAVYYFNAYPPYGGYAYGRGDYWGQGTQVTVSS", "high polyreactivity"),
    ("QVQLVESGGGLVQAGGSLRLSCAASGFIFQRNAMGWYRQAPGKERELVAAISWTGGSTYYADSVKGRFTISRDNAKNTVYLQMNSLKPDVTAVYYCAKYGSGPYGYWGQGTQVTVSS", "high polyreactivity"),
]

====

experiment: yeast display, Sf9 membrane polyspecificity reagent, FACS + sequencing; frameworks hold sequencing errors
MEASURE: polyreactivity (PSR sort gate)

# example entries with known answers
# MACROMOLECULE SEQUENCE, MEASURE, RESULT
data = [
    ("QVQLVESGGGLVQAGGSLRLSCAASGRTFKPYAMGWYRQAPGKERELVAAISTRGGSTYADSVKGRFTISRDNAKNTVYLQMNSLKPEDTAVYSCAAVYYRASARKFGYWGQGTQVTVSS", "polyreactivity (PSR sort gate)", "low polyreactivity"),
    ("QVQHVESGAGLVQAGGSLRLSCAASGIILLENAIGCYRQQPGKERELVSGISSGGNTNYADSVKGRFTISRDNAKNTVYLQINSLKPEDTAVYYCNTDWYLPRYVLPGYFSGTEDYWGKGTQVTVSS", "polyreactivity (PSR sort gate)", "low polyreactivity"),
    ("QVQLVESCGGLVQAGGSLRLSCAASGFTFPYYTMGWYRQAPGKERELVATITGGGSTNYADSVKGRFTISRDNAKNTVYLQKNSLKPEDTAVYYCAAKRWSGYGYYGWYDYWGQGTQVTVSS", "polyreactivity (PSR sort gate)", "high polyreactivity"),
    ("QVQLVESGGGLVQAGGSLRLSCAASGSIFFKYAMGWYRQAPGKERELVASITRGGRTYYADSVKGRFTISRDNAKNTVYLQMNSLKPEDTAVYYCNKRTVWKHDYWGQGTQVTVSS", "polyreactivity (PSR sort gate)", "high polyreactivity"),
]

Now examine the next entry.
Challenge: # return recorded polyreactivity (PSR sort gate) for input QVQHVESGGGLVQAGGSLLLSCAASGSIFEINAMGWYRQAPGKERELVADIRRGDSTNYADSVKGRFTNSRDNAKNTVYLQMNSLKPEDTAVYYCAARWRRSKYGVYPQRPYDYWGQGTQVTVSS
Response given: high polyreactivity

====

experiment: yeast display, Sf9 membrane polyspecificity reagent, FACS + sequencing; frameworks hold sequencing errors
MEASURE: polyreactivity (PSR sort gate)

# example entries with known answers
# MACROMOLECULE SEQUENCE, polyreactivity (PSR sort gate)
data = [
    ("QVQLVESGGCLVQAGGSRRLSWAASGRIFDTYTMGWYRQAPGKERELVAAITSGGSTYYADSVKGRFTISRDNAMNTVYLQMNSLKPEDTAVYYCAARYRSIIRYYYWGQGTQVTVSS", "high polyreactivity"),
    ("QVQLVESGGGLVQAGGSLRLSCAASGSTFRRNAMGWYRQAPGKERELVAAISRSGGSTYYADSEKGRFTISRDNAKNTVYLQMNSLKPEDTVVYYCAADAARTSHWSGDYWGQGTQVTVSS", "high polyreactivity"),
    ("QVQLVESGGGLVQAGGSLRLSCAASGFIFRDNAMGWYRQAPGKERELVAASSSRGGSTYYADSVKGRFTISRDNAKNTVYLQMNSLKPEDTAVYYCAKRPYKYRVQLDSWGPGTQVTVSS", "high polyreactivity"),
    ("QVQLVESGGGLVQAGGSLRLSCAASGRTFSWNAMGWYRQAPGKERELVAAISNSGGSTYYADSVKGRFTISRDNAKNTVYLQMNSLKPEDTAVYYCAVYRYYGFSLWYDYWGQGTQVTVSS", "low polyreactivity"),
]

Now examine the next entry.
Challenge: # return recorded polyreactivity (PSR sort gate) for input QVQLVESGGGLVQAGGSLRLSCAASGSNFYQYAMGWYRPAPRKERELVAAISVRAGITYYADSVTGRFTISRDNAKYTVYLQMNSLKPEDTAVYYCAKDHWTTSYDEGDYWGQGTQVTVSS
Response given: low polyreactivity

====

assay: yeast display, Sf9 membrane polyspecificity reagent, FACS + sequencing; frameworks hold sequencing errors
MEASURE: polyreactivity (PSR sort gate)

# MACROMOLECULE SEQUENCE, MEASURE, RESULT
measured = [
    ("QVQLVESGGGLVQAGGSLRLSSAASGITFYYYAMGWYRQAPGKERELVAAINWSGTSTYYADSVKGRFTISRDNAKNTVYLQMNSLKPEDTAVYYCNAERGRSFWWAYDYWGQGTQVTVSS", "polyreactivity (PSR sort gate)", "low polyreactivity"),
    ("QVQLVESGGGLVQAGGSLRLSCAASGSTFCFNDMGWYIQAPGKEREFVAAISSIGGSTYYADSVKGRFKISRDNAKNTLYLQMNSLKPEDTAVYYCAVEVVRVYRYDYWGQGTQVTVSS", "polyreactivity (PSR sort gate)", "low polyreactivity"),
    ("QVQLVESGGGLVQAGGSLRLSCAASGYIFDLNPMGRYRQAPGKERELVAAISTGGGTYYADSVKGRFTISRDNAKNTVYLQMNSLKPEDTAVYYCAADWGYWYAEYDYWGQGTLVTVSS", "polyreactivity (PSR sort gate)", "low polyreactivity"),
    ("QVQLVESGGGLVQSGGSLRLSCAASGYIFGYYAMGWYRQAPGKERELVADITWRGDSTYADSVKGRFTISRDNAKNTVYLQMNSLKPEDTAVYYCAADIATEYWYTGYDHWGQGTQVNVSS", "polyreactivity (PSR sort gate)", "low polyreactivity"),
]
